- experimental_target: Porcine pancreatic phospholipase A₂, [ε-Ac-Lys¹¹⁶]-AMPA (Sus scrofa, UniProt P00592)
- Sequence (P00592 23-146): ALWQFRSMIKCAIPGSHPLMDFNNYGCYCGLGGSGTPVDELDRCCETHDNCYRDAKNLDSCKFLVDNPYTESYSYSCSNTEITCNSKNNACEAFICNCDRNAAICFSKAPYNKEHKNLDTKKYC
readout_type: pKd
Convention used: pKd is expressed as -log10 of the molar concentration.

Task: Quick check: pKd on Porcine pancreatic phospholipase A₂, [ε-Ac-Lys¹¹⁶]-AMPA (Sus scrofa, UniProt P00592), item CCCCCCCC/C=C\CCCCCCCCOP(=O)([O-])OCC[N+](C)(C)C [cis-9-octadecenylphosphocholine] ?
Output: 4.42

----------
- experimental_target: Porcine pancreatic phospholipase A₂, [ε-NH₂-Lys¹¹⁶]-AMPA (Sus scrofa)
- Construct: incubated with 0.1% (wt/wt) trypsin at pH 8.0 (10 mM Tris, 5 mM Ca²⁺) in order to obtain [ε-NH₂-Lys-]AMPA; from tissue; host or cells: pig pancreas; partial amidination in the presence of diC8GS, then trypsin conversion of the pro-enzyme
- Sequence (P00592 23-146): as above
- experiment_summary: Binding to micellar cis-9-octadecenyl phosphocholine by UV absorption difference spectroscopy
- test_conditions: micellar ligand, N = number of lipid monomers per molecule of enzyme, KD = micellar dissociation constant, read-out: N.KD apparent dissociation constant
readout_type: pKd
A value of pKd is the negative decimal logarithm of a concentration given in moles per litre.

Task: Suppose we examine the compound CCCCCCCC/C=C\CCCCCCCCOP(=O)([O-])OCC[N+](C)(C)C [cis-9-octadecenylphosphocholine] ; what pKd value has been reported?
Output: 4.36
